# measured.target: UniProt:P41594
# Sequence (P41594 whole entry): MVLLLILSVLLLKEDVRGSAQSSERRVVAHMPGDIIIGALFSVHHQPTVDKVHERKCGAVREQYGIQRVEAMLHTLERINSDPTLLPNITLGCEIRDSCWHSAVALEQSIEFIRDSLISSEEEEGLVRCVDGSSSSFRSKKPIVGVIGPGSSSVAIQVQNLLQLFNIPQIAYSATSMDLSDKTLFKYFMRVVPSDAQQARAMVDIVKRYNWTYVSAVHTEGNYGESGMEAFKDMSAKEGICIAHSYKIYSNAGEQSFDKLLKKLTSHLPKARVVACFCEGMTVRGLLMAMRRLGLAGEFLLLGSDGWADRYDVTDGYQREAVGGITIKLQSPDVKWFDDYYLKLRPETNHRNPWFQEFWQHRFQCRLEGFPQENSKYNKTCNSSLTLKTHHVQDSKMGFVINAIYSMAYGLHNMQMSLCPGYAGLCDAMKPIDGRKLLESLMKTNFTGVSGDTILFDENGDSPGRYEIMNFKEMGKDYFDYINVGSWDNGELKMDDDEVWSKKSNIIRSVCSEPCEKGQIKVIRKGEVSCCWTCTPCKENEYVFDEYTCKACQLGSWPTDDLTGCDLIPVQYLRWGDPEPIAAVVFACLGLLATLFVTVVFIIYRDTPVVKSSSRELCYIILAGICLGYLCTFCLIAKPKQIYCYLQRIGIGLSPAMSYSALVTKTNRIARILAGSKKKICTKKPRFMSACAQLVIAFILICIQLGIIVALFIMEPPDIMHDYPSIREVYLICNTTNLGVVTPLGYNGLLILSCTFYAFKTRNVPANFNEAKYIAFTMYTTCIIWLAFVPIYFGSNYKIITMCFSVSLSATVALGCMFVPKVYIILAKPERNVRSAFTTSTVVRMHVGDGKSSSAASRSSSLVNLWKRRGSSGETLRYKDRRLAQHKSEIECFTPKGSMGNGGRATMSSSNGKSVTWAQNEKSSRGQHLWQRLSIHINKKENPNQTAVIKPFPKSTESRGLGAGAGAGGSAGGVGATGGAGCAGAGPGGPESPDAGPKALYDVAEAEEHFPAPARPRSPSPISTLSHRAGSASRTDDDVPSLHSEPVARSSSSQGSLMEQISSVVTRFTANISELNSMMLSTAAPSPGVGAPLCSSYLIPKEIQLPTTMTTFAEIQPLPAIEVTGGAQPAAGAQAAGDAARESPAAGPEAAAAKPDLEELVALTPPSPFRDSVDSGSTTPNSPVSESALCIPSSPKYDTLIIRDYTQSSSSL
# assay.name: Inhibitory concentration against human recombinant metabotropic glutamate receptor 5 (mGlu5) in Ltk cells determined using fluorescence detection method
# Type: cell-based
pIC50: −log10 of the molar value.
property.label: pIC50

>>> observed("Cc1cccc(NC(=O)c2nc(C)ccc2N)n1")
7.66

a: Cc1cccc(NC(=O)c2cccc(Br)n2)n1
b: Nc1nccnc1C(=O)Nc1ccccn1
Which entry has a larger number for pIC50, a or b ? Selection: enter the item's label.
a
